Hepatotoxicity: reported HepSE_cholelithiasis for various compounds.
Answers are plain numbers.

O=C(c1ccc(OCCN2CCCCC2)cc1)c1c(-c2ccc(O)cc2)sc2cc(O)ccc12
1
NCC(CC(=O)O)c1ccc(Cl)cc1 (stereo not given)
0
Oc1ccc2c(c1)[C@@]13CCCC[C@@]1(O)[C@@H](C2)N(CC1CCC1)CC3
0
CCc1ccc(CCOc2ccc(CC3SC(=O)NC3=O)cc2)nc1 (stereo not given)
0

Alright, here's another compound for you.
Inquiry: Reported HepSE_cholelithiasis for `CC(C)(C)NC[C@H](O)COc1cccc2c1CCCC2=O` : what is it?
Reply text: 0

----------
Give HepSE_hepatomegaly for every item shown.
# System: Hepatotoxicity
# EXPERIMENTAL CONDITIONS: Liver; also: call rule not given here
One number for each entry.

Give HepSE_hepatomegaly for each listed item.
1. O=C1NC(=O)C(c2ccccc2)(c2ccccc2)N1 [PHENYTOIN]
2. CNCCCC1c2ccccc2C=Cc2ccccc21 [PROTRIPTYLINE]
3. NNc1nncc2ccccc12 [HYDRALAZINE]
4. CN(C)CCOC(c1ccccc1)c1ccccc1 [DIPHENHYDRAMINE]
5. Brc1c(NC2=NCCN2)ccc2nccnc12 [BRIMONIDINE]
6. Clc1cccc(Cl)c1N=C1NCCN1 [CLONIDINE]

Reply text:
1. 0
2. 0
3. 0
4. 0
5. 0
6. 0

Give HepSE_hepatomegaly for each listed item.
1. COc1cc([C@@H]2c3cc4c(cc3[C@@H](O[C@@H]3O[C@@H]5CO[C@@H](C)O[C@H]5[C@H](O)[C@H]3O)[C@H]3COC(=O)[C@H]23)OCO4)cc(OC)c1O [ETOPOSIDE]
2. CN1CCCCC1CCN1c2ccccc2Sc2ccc([S+](C)[O-])cc21 (stereo not drawn) [MESORIDAZINE]
3. CN1[C@@H]2C[C@@H](OC(=O)[C@H](CO)c3ccccc3)C[C@H]1[C@@H]1O[C@@H]12 [SCOPOLAMINE]

Reply text:
1: 0; 2: 0; 3: 0

Give HepSE_hepatomegaly for each listed item.
1. CC(C)n1c(/C=C/C(O)CC(O)CC(=O)O)c(-c2ccc(F)cc2)c2ccccc21 (stereo not drawn) [FLUVASTATIN]
2. CCCCc1oc2ccccc2c1C(=O)c1cc(I)c(OCCN(CC)CC)c(I)c1 [AMIODARONE]
3. O=C(O)O [BICARBONATE]

Reply text:
0
1
0

Inquiry: Reported HepSE_hepatomegaly for O=P1(N(CCCl)CCCl)NCCCO1 (stereo not drawn) [CYCLOPHOSPHAMIDE ANHYDROUS] : what is it?
Reply text: 1

----------
# Test system: Hepatotoxicity
MEASUREMENT TYPE: HepSE_jaundice
One number for each entry.

Solved entries:
CC(C)(C)NCC(O)COc1cccc2c1CC(O)C(O)C2 (stereo not drawn) [NADOLOL]
0
CC1(C)O[C@@H]2C[C@H]3[C@@H]4C[C@H](F)C5=CC(=O)C=C[C@]5(C)[C@H]4[C@@H](O)C[C@]3(C)[C@]2(C(=O)CO)O1 [FLUNISOLIDE]
0
CC#CCC(C)[C@H](O)/C=C/[C@@H]1[C@H]2C/C(=C/CCCC(=O)O)C[C@H]2C[C@H]1O (stereo partly drawn) [ILOPROST]
0
Nc1nnc(-c2cccc(Cl)c2Cl)c(N)n1 [LAMOTRIGINE]
0
CN(C)CCc1c[nH]c2ccc(C[C@H]3COC(=O)N3)cc12 [ZOLMITRIPTAN]
1
C[C@]12CC[C@@H]3c4ccc(O)cc4CC[C@H]3[C@@H]1CC[C@@H]2O [ESTRADIOL]
1
O=C(O)P(=O)(O)O [FOSCARNET]
0

Alright, here's another compound for you.
Inquiry: Reported HepSE_jaundice for CN(C)c1ccc(O)c2c1C[C@H]1C[C@H]3[C@H](N(C)C)C(O)=C(C(N)=O)C(=O)[C@@]3(O)C(O)=C1C2=O [MINOCYCLINE] : what is it?
Reply text: 1

----------
Give HepSE_hepatitis for every item shown.
# Test system: Hepatotoxicity
Answers are plain numbers.

Clc1ccc(CCC(Cn2ccnc2)Sc2c(Cl)cccc2Cl)cc1 (stereo unspecified)
0

Give HepSE_hepatitis for each listed item.
1. C=C(c1ccc(C(=O)O)cc1)c1cc2c(cc1C)C(C)(C)CCC2(C)C
2. CN(Cc1ccc(C(C)(C)C)cc1)Cc1cccc2ccccc12
3. CN(C)CCc1c[nH]c2ccc(Cn3cncn3)cc12
4. Cc1cc(C2CCCCC2)n(O)c(=O)c1
5. CC(C)Cn1cnc2c(N)nc3ccccc3c21
6. CC(=O)[C@@]1(O)CC[C@H]2[C@@H]3C=C(Cl)C4=CC(=O)[C@@H]5C[C@@H]5[C@]4(C)[C@H]3CC[C@@]21C

Reply text:
1: 0; 2: 0; 3: 0; 4: 0; 5: 0; 6: 1

----------
Where a SMILES comes first, the peptide text is derived from it. Bridges are numbered along the chain shown (N, C = ends). [ ]: non-standard residue; d: D form. The star is where a group is joined. Ileψ(thiazoline)Cys = CC[C@H](C)[C@H](N)C1=N[C@H](C(=O)*)CS1; dOrn = NCCC[C@@H](N)C(=O)O
Hepatotoxicity: reported HepSE_liver disease for various compounds.
Numbers only.

Solved entries:
CNCCc1ccccn1
0
CCCC(C)C1(CC)C(=O)NC(=O)NC1=O (stereo not drawn)
0
CC[C@H](C)[C@H](N)C1=N[C@H](C(=O)N[C@@H](CC(C)C)C(=O)N[C@H](CCC(=O)O)C(=O)N[C@H](C(=O)N[C@H]2CCCCNC(=O)[C@H](CC(N)=O)NC(=O)[C@@H](CC(=O)O)NC(=O)[C@H](Cc3cnc[nH]3)NC(=O)[C@@H](Cc3ccccc3)NC(=O)[C@H]([C@@H](C)CC)NC(=O)[C@@H](CCCN)NC2=O)[C@@H](C)CC)CS1 [BACITRACIN] ({Ileψ(thiazoline)Cys}-L[dE]IK[dOrn]I[dF]H[dD]N; lactam 4-C)
0

Give HepSE_liver disease for each listed item.
1. Nc1nc(O)c2ncn(COC(CO)CO)c2n1
2. CC1Cc2ccccc2N1NC(=O)c1ccc(Cl)c(S(N)(=O)=O)c1 (stereo not drawn) [INDAPAMIDE]
3. O=C(N[C@H](CO)[C@H](O)c1ccc([N+](=O)[O-])cc1)C(Cl)Cl
4. CC(=O)O[C@H]1C[C@@H]2CC[C@@H]3[C@H](CC[C@@]4(C)[C@H]3C[C@H]([N+]3(C)CCCCC3)[C@@H]4OC(C)=O)[C@@]2(C)C[C@@H]1N1CCCCC1
5. COC(c1ccccc1)(c1ccccc1)[C@H](Oc1nc(C)cc(C)n1)C(=O)O
6. CN(CCOc1ccc(NS(C)(=O)=O)cc1)CCc1ccc(NS(C)(=O)=O)cc1 [DOFETILIDE]
7. C[C@H]1O[C@@H](O[C@H]2[C@@H](O)C[C@H](O[C@H]3[C@@H](O)C[C@H](O[C@H]4CC[C@@]5(C)[C@H](CC[C@@H]6[C@@H]5C[C@@H](O)[C@]5(C)[C@@H](C7=CC(=O)OC7)CC[C@]65O)C4)O[C@@H]3C)O[C@@H]2C)C[C@H](O)[C@@H]1O

Reply text:
[0, 0, 0, 0, 0, 0, 0]

Give HepSE_liver disease for each listed item.
1. O=C(c1ccc(OCCN2CCCCC2)cc1)c1c(-c2ccc(O)cc2)sc2cc(O)ccc12
2. CC(C(=O)O)c1cccc(Oc2ccccc2)c1 (stereo not drawn)
3. CC1=C(C(=O)O)N2C(=O)[C@@H](NC(=O)[C@H](N)c3ccc(O)cc3)[C@H]2SC1

Reply text:
0
0
0

----------
Hepatotoxicity: reported HepSE_cirrhosis for various compounds.
Answers are plain numbers.

Give HepSE_cirrhosis for each listed item.
1. N[C@@H]1CON=C1O
2. CNC(=C[N+](=O)[O-])NCCSCc1ccc(CN(C)C)o1
3. COc1ccccc1Oc1c(NS(=O)(=O)c2ccc(C(C)(C)C)cc2)nc(-c2ncccn2)nc1OCCO

Reply text:
0
0
1

Give HepSE_cirrhosis for each listed item.
1. CN1CC(=O)N2[C@H](c3ccc4c(c3)OCO4)c3[nH]c4ccccc4c3C[C@@H]2C1=O
2. CCN1CC(CCN2CCOCC2)C(c2ccccc2)(c2ccccc2)C1=O (stereo not given)

Reply text:
[0, 0]

----------
Hepatotoxicity: reported HepSE_hepatomegaly for various molecules.
Answers are plain numbers.

C[C@H]1C[C@H]2[C@@H]3CCC4=CC(=O)C=C[C@]4(C)[C@@]3(F)[C@@H](O)C[C@]2(C)[C@@]1(O)C(=O)CCl [CLOBETASOL]
0

Give HepSE_hepatomegaly for each listed item.
1. CC(=O)O[C@]1(C(C)=O)CC[C@H]2[C@@H]3C=C(C)C4=CC(=O)CC[C@]4(C)[C@H]3CC[C@@]21C [MEGESTROL ACETATE]
2. CSc1ccc2c(c1)N(CCC1CCCCN1C)c1ccccc1S2 (centres undefined) [THIORIDAZINE]
3. COc1cc(CC2c3c(cc(OC)c(OC)c3OC)CC[N+]2(C)CCCOC(=O)CCC(=O)OCCC[N+]2(C)CCc3cc(OC)c(OC)c(OC)c3C2Cc2cc(OC)c(OC)c(OC)c2)cc(OC)c1OC (centres undefined) [DOXACURIUM]

Reply text:
1: 1; 2: 0; 3: 0
